# assay.system: T1, monkey Trop2 protein (Sino Biological, #90893-C08H) (monkey, UniProt A0A2K5UE71 27-274)
# T1 construct: bought protein; also called monkey Trop2 protein antigen (His tag)
# T1 sequence: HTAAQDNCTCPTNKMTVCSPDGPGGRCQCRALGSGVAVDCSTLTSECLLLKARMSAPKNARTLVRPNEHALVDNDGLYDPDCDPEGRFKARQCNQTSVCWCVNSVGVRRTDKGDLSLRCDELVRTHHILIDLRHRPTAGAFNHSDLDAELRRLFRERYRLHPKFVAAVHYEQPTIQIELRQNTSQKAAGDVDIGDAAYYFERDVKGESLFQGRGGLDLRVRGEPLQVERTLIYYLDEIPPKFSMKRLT
# assay.info: BLI, Octet RED96, AHC sensor
kon values, listed per item
Write it as a number; the unit M⁻¹ s⁻¹ goes unstated.

Please give the measured kon for this binder: PR001159 (antibody, human IgG1, kappa, V domains shown, fully human IgG1/kappa; also called antibody No. (21)) VH: QVQLVESGGGVVQPGRSLRLSCEASGFTFSHYGMHWVRQAPGKGLEWVAVIWYDGIKTNYVESVKGRFTISRDNSKNTLNLQMNRLRAEDTAVYYCARDGGFGESNYYGLDVWGQGTTVTVSS VL: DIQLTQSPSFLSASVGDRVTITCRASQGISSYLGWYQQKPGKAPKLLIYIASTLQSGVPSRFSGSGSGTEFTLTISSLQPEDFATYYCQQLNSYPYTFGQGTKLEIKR
111000

Please give the measured kon for this binder: PR001171 (antibody, human IgG1, kappa, V domains shown, fully human IgG1/kappa; also called antibody No. (30)) VH: QVQLVESGGGVVQPGRSLRLSCAASGFTFSHYGMHWVRQAPGKGLEWVAVIWYDGIKKNYVESVKGRFTISRDNSKNTLNLQMNRLRAEDTAVYYCARDGGFGESNYYGLDVWGQGTTVTVSS VL: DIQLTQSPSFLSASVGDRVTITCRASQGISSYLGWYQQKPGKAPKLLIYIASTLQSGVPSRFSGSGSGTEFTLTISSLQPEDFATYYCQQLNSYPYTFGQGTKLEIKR
88300

Please give the measured kon for this binder: PR001138 (antibody, human IgG1, kappa, V domains shown, fully human IgG1/kappa; also called antibody No. (7)) VH: QVQLQESGPRLVKPSETLSLTCAVSGYSISSGYYWGWIRQSPGMGLEWIAYIYHDGSTYCNPSLKSRVTMSVDTSKNQFSLKLRSVTAADTAVYYCARDGAAAPFDYWGQGTLVTVSS VL: DIQMTQSPSTLSASVGDRVTITCRASQSISNWLAWYQQKPGKAPKVLIYKASSLESGVPSRFSGSGSGTEFTLTINSLQPDDFATYYCQQYDSYSITFGQGTRLEIKR
97400
